Molecular target: T1, Human EphA2 (Ecto) (Human, UniProt P29317 24-537)
T1 construct: extracellular domain
T1 sequence (P29317 24-537): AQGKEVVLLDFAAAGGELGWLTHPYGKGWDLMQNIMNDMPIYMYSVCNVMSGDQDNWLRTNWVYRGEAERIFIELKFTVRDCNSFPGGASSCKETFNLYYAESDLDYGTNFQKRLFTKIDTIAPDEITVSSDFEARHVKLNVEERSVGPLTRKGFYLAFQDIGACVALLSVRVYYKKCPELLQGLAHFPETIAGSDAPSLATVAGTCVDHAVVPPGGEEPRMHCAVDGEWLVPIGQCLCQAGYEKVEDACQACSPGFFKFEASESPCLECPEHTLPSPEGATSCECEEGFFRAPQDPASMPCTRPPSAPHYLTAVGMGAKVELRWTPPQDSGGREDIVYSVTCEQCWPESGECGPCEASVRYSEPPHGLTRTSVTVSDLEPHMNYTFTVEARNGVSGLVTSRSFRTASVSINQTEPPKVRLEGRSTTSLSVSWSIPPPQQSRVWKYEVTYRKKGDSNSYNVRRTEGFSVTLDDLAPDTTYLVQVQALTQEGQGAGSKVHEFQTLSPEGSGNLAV
Assay: FP competition; competitor Compound 66
pKi: −log10 of the molar value. Numbered stars: 1 amine (or outer) side, 2 acyl side, 3 side chain; on linkers, the order of the positions; unused ones are H or OH. Bridge positions count the residues as written; N and C are the ends. Square brackets hold non-standard residues; d marks the D form. Ends that are not written are not given here. 1Nal = N[C@@H](Cc1cccc2ccccc12)C(=O)O; TBMB = c1c(C[*:1])cc(C[*:3])cc1C[*:2]; Tle = CC(C)(C)[C@H](N)C(=O)O; Aib = CC(C)(N)C(=O)O; Sar = CNCC(=O)O
measure-name: pKi

[[record]]
binder = "ACPWGPFWCPVNRPGCA (linker 2-9-16 via TBMB) [Compound 69]"
experimental_result = 7.15


1: ACMNDWLCQLGWTCA (linker 2-8-14 via TBMB) [Compound 30]
2: [Sar][Sar]ACP[1Nal]GPFWCP[Tle]NR[Aib]GC (linker 4-11-18 via TBMB) [Compound 131]
Q: Which of the two gives a bigger number for pKi: 1 or 2 ? Give the label under which the chosen entry appears.
A: 2
